# Target or test system: Large T antigen (Simian virus 40, UniProt P03070);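 note: Confirmatory-stage PubChem screen for compounds that inhibit SV40 T antigen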
# Sequence (P03070 whole entry): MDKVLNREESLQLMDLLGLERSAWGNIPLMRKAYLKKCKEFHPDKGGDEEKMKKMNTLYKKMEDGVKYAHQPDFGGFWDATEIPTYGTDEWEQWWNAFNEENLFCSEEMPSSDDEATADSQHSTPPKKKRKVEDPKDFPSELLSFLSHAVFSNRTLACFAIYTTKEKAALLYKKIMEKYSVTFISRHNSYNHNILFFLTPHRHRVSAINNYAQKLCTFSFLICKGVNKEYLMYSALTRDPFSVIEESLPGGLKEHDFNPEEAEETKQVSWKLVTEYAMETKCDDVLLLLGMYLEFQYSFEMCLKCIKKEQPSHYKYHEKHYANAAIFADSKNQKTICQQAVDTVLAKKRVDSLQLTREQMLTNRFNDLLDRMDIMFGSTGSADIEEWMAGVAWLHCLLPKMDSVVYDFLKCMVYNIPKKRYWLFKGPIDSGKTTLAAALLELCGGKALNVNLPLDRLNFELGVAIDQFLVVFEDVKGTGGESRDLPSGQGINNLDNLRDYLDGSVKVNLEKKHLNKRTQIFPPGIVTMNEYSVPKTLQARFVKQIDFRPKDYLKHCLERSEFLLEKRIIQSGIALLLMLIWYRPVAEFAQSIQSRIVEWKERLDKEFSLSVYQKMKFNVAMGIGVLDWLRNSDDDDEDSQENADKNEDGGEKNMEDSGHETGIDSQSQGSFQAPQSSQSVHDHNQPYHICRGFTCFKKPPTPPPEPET
# Format: functional, Betapolyomavirus macacae
The source made the active and inactive calls.
Quantity measured: IC50

* O=C(N/N=C(\c1ccccc1)c1cccnc1)c1cc(O)ccc1O | 6.14 µM (active)
* Oc1cc(O)cc(/C=C/c2ccc(O)c(O)c2)c1 | 16.4 µM (active)
* N#Cc1c(N)sc(=S)c2c1CCCCC2 | 46.4 µM (active)
* O=[N+]([O-])c1ccc2c(c1N1CCCCC1)=NC1(CCCCC1)[N+]=2[O-] | > 100 µM (active)
* COc1cc(/C=C2\C(C)=C(C#N)c3nc(N)c(C#N)c(C)c32)ccc1OCC(=O)O | 58.1 µM (active)
* COc1ccc(NC2CCCN(C(=O)CSc3ccccc3)C2)cc1 (stereo unspecified) | 7.48 µM (active)

* * *

# Target or test system: Corticotropin-releasing factor receptor 2/Corticotropin-releasing factor-binding protein (Homo sapiens, UniProt P24387+Q13324)
# Sequence (Q13324 whole entry): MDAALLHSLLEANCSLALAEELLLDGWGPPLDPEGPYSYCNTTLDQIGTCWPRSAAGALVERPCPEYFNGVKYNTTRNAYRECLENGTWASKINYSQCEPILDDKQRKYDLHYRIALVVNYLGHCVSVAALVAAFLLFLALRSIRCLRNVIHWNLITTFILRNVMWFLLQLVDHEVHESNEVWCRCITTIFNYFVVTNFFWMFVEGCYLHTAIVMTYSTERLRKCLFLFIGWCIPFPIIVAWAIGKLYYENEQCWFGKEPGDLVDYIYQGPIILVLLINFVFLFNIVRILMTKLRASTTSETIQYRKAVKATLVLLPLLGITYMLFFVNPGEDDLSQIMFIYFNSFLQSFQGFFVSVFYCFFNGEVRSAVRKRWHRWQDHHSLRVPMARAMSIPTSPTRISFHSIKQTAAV
# Sequence (P24387 whole entry): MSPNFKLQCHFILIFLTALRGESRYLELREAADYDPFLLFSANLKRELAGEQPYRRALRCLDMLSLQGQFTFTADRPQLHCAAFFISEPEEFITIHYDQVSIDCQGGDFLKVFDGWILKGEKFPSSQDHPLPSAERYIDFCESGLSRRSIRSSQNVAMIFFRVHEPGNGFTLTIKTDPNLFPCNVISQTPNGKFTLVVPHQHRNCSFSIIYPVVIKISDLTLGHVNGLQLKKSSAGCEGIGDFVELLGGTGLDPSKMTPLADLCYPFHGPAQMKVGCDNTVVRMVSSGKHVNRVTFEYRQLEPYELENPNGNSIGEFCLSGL
# Method: Dose Response confirmation of uHTS hits for small molecule antagonists of the CRF-binding protein and CRF-R2 receptor complex.
# Assay type: functional
# Condition context: read-out: IC50_Mean
Calls of active or inactive are those of the source.
Outcome codes: Y (active), N (inactive)

- Fc1cccc(NC(S)=NCc2ccc(Cl)cc2)c1: N
- CCOC(=O)C1CCN(C(=O)c2n[nH]c(=O)c3ccccc23)CC1: N
- Cc1ccc(N(C(=O)c2nsc(Cl)c2Cl)C(C(=O)NC2CCCC2)c2ccc(O)cc2)cc1C (stereo unspecified): Y
- c1ccc(-n2c(-c3ccncc3)nnc2-c2ccco2)cc1: N
- COc1ccc(-c2csc(NC(=O)CN3C(=O)C4CC=CCC4C3=O)n2)cc1OC (stereo unspecified): N
- CCn1cc(C2=NOC(C(=O)Nc3ccccc3C(=O)OC)C2)c(C)n1 (stereo unspecified): N

* * *

The following molecules are listed with their measured AC50 values.
# Target or test system: Cytochrome P450 2C9 (Homo sapiens, UniProt P11712)
# Sequence (P11712 whole entry): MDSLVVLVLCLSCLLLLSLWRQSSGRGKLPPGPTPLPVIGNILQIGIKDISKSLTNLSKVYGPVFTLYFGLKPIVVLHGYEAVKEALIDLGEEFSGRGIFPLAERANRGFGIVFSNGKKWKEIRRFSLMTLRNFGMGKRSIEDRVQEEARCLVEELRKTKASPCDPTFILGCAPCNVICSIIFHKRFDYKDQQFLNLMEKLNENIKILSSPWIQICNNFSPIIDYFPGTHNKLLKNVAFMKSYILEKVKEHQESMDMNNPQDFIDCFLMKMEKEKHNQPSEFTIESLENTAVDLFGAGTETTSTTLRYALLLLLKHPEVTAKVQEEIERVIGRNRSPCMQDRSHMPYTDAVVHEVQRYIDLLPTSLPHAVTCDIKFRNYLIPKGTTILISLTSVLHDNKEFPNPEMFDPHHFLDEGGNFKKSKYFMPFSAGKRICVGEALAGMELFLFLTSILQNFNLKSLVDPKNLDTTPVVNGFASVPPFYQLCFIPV
Quantity measured: AC50

• COc1ccccc1CNc1ccnc(-c2c(C)noc2C)n1 = 0.501 µM (inconclusive)
• CCn1c(SCC(=O)NC(=O)NCc2ccco2)nnc1-c1cccs1 = 39.8 µM (inconclusive)
• Cc1ccc2[nH]c(Cc3ccc(N)cc3)nc2c1 = 14.1 µM (inconclusive)
• CCCS(=O)(=O)N1CCCC(C(=O)NCCCN2CCN(c3ccccc3F)CC2)C1 (stereo unspecified) = 5.01 µM (inconclusive)
• COC(=O)N1CCC[C@@]2(CCN(C(=O)Nc3ccc(OC)cc3)C2)C1 = 20 µM (inconclusive)
• O=[N+]([O-])c1ccc(Nc2nc(N/N=C\c3ccc4c(c3)OCO4)nc(N3CCCCC3)n2)cc1 = 8.91 µM (inconclusive)

* * *

# Method: inhibitors of intracellular T. cruzi replication, confirmation, NIH3T3 host cells, beta-gal luminescence (AID 2044);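 note: intracellular parasites grown in NIH/3T3 mouse fibroblasts as host cells; luminescent beta-galactosidase reporter signal from transgenic T. cruzi replicating inside host cells; inhibitors lower the luminescence signal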
# Assay type: functional, cell-based
Activity calls are given as the source filed them.
Quantity measured: EC50

* CN1CCN(C(CNC(=O)c2ccc(Br)o2)c2ccc(F)cc2)CC1 (stereo not drawn) | 865 nM (active)
* CCOC(=O)C1CCCN(Cc2ccc(O)c(OC)c2)C1 (stereo not drawn) | 183 nM (active)
* COc1ccc(NC(=O)c2ccc([N+](=O)[O-])s2)c([N+](=O)[O-])c1 | 1860 nM (active)
* CCC(C)NCCOCCOc1ccc(Cl)c(C)c1C (stereo not drawn) | 148 nM (active)
* O=C(C1=C[C@H](c2ccc(C(F)(F)F)cc2)C[C@H](OCc2ccc(CO)cc2)O1)N1CCN(Cc2ccc3c(c2)OCO3)CC1 | 265 nM (active)
* O=C(OCC(=O)c1c[nH]c2ccccc12)c1ccc([N+](=O)[O-])s1 | 1040 nM (active)
* Cc1sc(NC(=O)c2ccco2)c(C(c2cccnc2)N2CCN(c3ccc(F)cc3)CC2)c1C (stereo not drawn) | < 100 nM (active)
* Cc1ccc(C)c(NC(=O)c2cccc(Oc3ccc([N+](=O)[O-])cc3Cl)c2)c1 | 1450 nM (active)
